# experiment-summary: protein stability index of a GFP-peptide fusion (yeast GPS) (PSI 1-4); higher = more stable; sorted into four equal gates, so the index is relative within each strain
# conditions: ubr1∆
measured-parameter: protein stability index
I only need the number, thanks.

Lookup: Entry AENSHTQPKATSTGTTI [PUP1] : reported protein stability index = ?
Found: 3.26

Lookup: Entry YKDVSDLIRSESMLHLS [IRR1] : reported protein stability index = ?
Found: 2.01

Lookup: Entry GKRQVLIRPSSKVIIKF [RPS22A] : reported protein stability index = ?
Found: 2.95

Lookup: Entry MHALKNRSEQNGQEQQG [RGR1] : reported protein stability index = ?
Found: 3.06

Lookup: Entry YEAPRHGHLGFLPRKRA [RPL3] : reported protein stability index = ?
Found: 2.72

Lookup: Entry HLRKLLDGELDFDDFLK [RET1] : reported protein stability index = ?
Found: 2.99

Lookup: Entry ASYLTPLLEAKKLVWPL [SSN2] : reported protein stability index = ?
Found: 2.71

Lookup: Entry SQRPGARILARSERKRT [ITC1] : reported protein stability index = ?
Found: 2.98

* * *

# experiment-summary: protein stability index of a GFP-peptide fusion (yeast GPS) (PSI 1-4); higher = more stable; sorted into four equal gates, so the index is relative within each strain
# conditions: san1∆
Classify by measured protein stability index: Y if it is equal to or exceeds 3, N if it is smaller.

Lookup: API: above_or_equal(metric=protein stability index, cutoff=3) for item IPYGPDFDNIEFKKIPR [SEC65]
Found: N

Lookup: API: above_or_equal(metric=protein stability index, cutoff=3) for item HYNDSQQLRTWKRQISY [SRB8]
Found: Y

Lookup: API: above_or_equal(metric=protein stability index, cutoff=3) for item DGMYSESKLSLETLFNR [FAS2]
Found: Y

Lookup: API: above_or_equal(metric=protein stability index, cutoff=3) for item LNSNNSIIGNKNNNYTW [REC8]
Found: N

Lookup: API: above_or_equal(metric=protein stability index, cutoff=3) for item GAHKFLDTYLPEDLNSL [SIR2]
Found: N

Lookup: API: above_or_equal(metric=protein stability index, cutoff=3) for item LVSMRYPEDKKTQQNEK [RPN3]
Found: Y

Lookup: API: above_or_equal(metric=protein stability index, cutoff=3) for item PDFLSKYSAITSSIFQE [NUT1]
Found: N

Lookup: API: above_or_equal(metric=protein stability index, cutoff=3) for item RKGGPATAEKLPNIYPS [RPT2]
Found: N

* * *

I'd be grateful if you could share measured protein stability index for these entries.
# experiment-summary: protein stability index of a GFP-peptide fusion (yeast GPS) (PSI 1-4); higher = more stable; sorted into four equal gates, so the index is relative within each strain
# conditions: pdr5∆
I only need the number, thanks.

Lookup: Entry SLFQLSKLGKNLQTVHF [GRR1] : reported protein stability index = ?
Found: 2.22

Lookup: Entry LLQEGGSLSGNSSSMEE [ESC2] : reported protein stability index = ?
Found: 2.67

Lookup: Entry GLHKFVKGDLLQEAIDF [PRE10] : reported protein stability index = ?
Found: 2.83

Lookup: Entry VTIREQINIMPSLKAHF [SIR3] : reported protein stability index = ?
Found: 2.83

Lookup: Entry ARDAPTKISTLAVKVHG [QCR2] : reported protein stability index = ?
Found: 2.09

Lookup: Entry KDIRSTLASLIRYNSVE [RPC82] : reported protein stability index = ?
Found: 2.13

Lookup: Entry IQAVFCLTKFQDEEQTE [YCG1] : reported protein stability index = ?
Found: 2.24

Lookup: Entry ARVTGGMKVKADRDESS [RPS14B] : reported protein stability index = ?
Found: 2.92

Lookup: Entry VSDDESNGEVLEVGKNN [RPN14] : reported protein stability index = ?
Found: 2.99

Lookup: Entry KVKILEQIDENWSKEDL [SWI3] : reported protein stability index = ?
Found: 2.92

Lookup: Entry PRMYHIGLRQFQQIQYE [POP1] : reported protein stability index = ?
Found: 1.67

Lookup: Entry NKVGSTGSLMGGNSTQN [YGR119C/NUP57] : reported protein stability index = ?
Found: 3.38

Lookup: Entry AQAQAQAQAQAQAAQAA [GAL11] : reported protein stability index = ?
Found: 3.27

Lookup: Entry IVNNDLPTTVVSNPGDN [MED2] : reported protein stability index = ?
Found: 2.96

// data source = the supplement of paper PMC9732359
